- System: Fer (mouse);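 note: 11-residue human phosphosite peptides and single-mutation variants displayed on the E. coli surface, counted by deep sequencing, each peptide's frequency after selection divided by its frequency in the unselected input library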;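 note: frequency after pTyr selection over input frequency; kinase dosed for 20-30% of maximal phosphorylation in three min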
- procedure text: phosphorylation enrichment, bacterial display (enrichment ratio); higher = better substrate or ligand; peptides without Tyr show the background
# phosphorylation enrichment listing for each entry below

{"sequence data": "GTATTYLCGVK [ALPL_Y117_A116T]", "phosphorylation enrichment": 0.495}
{"sequence data": "DLDTEYGSGYP [RNASEH2A_Y206_D205E]", "phosphorylation enrichment": 0.505}
{"sequence data": "KAIDMYLMGCF [GABRB2_Y308]", "phosphorylation enrichment": 0.486}
{"sequence data": "NPQKSYFICLF [WAS_Y83_R86C_YF]", "phosphorylation enrichment": 0.496}
{"sequence data": "VIEFSYTSADG [DHCR7_Y382_C380Y_YF]", "phosphorylation enrichment": 0.499}
